system: P. falciparum 3D7 trophozoites; test: Metabolomic fingerprint profiling LC-MS; assay type: cell-based, Plasmodium falciparum; details: metabolite a-ketoglutarate, S2 Table Metabolomics
// a-ketoglutarate lookup, one value per entry
observed.property: a-ketoglutarate

compound	val
COc1ccc(-c2nc(NC(=O)CS(=O)(=O)c3ccc(F)cc3)sc2C)cc1 [MMV665915]	-0.1843
COc1ccc(C2=C(c3ccc(OC)cc3)C3(c4ccccc4)C(=O)C2(c2ccccc2)C2C(=O)N(c4ccc(C)cc4)C(=O)C23)cc1 (stereo not shown) [MMV666101]	-0.8357
CCOC(=O)c1cnc2c(C)cc(C)cc2c1Nc1ccc(OC)c(OC)c1 [MMV008294]	-0.236
CC1CCN(Cc2ccc(NC(=O)c3cc4ccc5cccnc5c4[nH]3)cc2)CC1 [MMV020549]	-0.128

* * *

// UTP lookup, one value per entry
system: P. falciparum 3D7 trophozoites; assay: Metabolomic fingerprint profiling LC-MS; format: cell-based, Plasmodium falciparum; conditions: metabolite UTP; S2 Table Metabolomics, change in metabolite level after compound treatment
observed.property: UTP

molecule	val
CC1CCN(Cc2ccc(NC(=O)c3cc4ccc5cccnc5c4[nH]3)cc2)CC1	0.1832
O=C(NCC(c1ccsc1)N1CCCCCC1)c1ccc(C(F)(F)F)cc1 (stereo not shown)	-0.1422
O=C(CSc1nccn2nc(-c3ccccc3)cc12)Nc1cc(C(F)(F)F)ccc1Cl	-1.3566
COc1ccc(NC(=O)C2c3ccccc3C(=O)N(CC(C)C)C2c2cccs2)cc1Cl (stereo not shown)	-1.308
COc1ccc(-n2ccnc2SCC(=O)Nc2cc(C)ccc2C)c(OC)c1	-1.944
CCOC(=O)c1cnc2ccc(CC)cc2c1O	-0.9344
COc1cccc(C=Cc2nc(=O)c3ccccc3o2)c1OC	-0.635
COc1ccc(-c2nc3cc(Cc4ccc5[nH]c(-c6ccc(OC)cc6)nc5c4)ccc3[nH]2)cc1	-0.61
Cc1ccc(-c2cc3nc4c(c(O)n3n2)CCCC4)cc1	-2.161
CCn1c(CN2CCN(Cc3ccccc3)CC2)nc2cc(NC(=O)c3cccs3)ccc21	-1.42
CCOC(=O)c1ccc2nc(-c3ccccc3)cc(O)c2c1	-1.644
Cc1ccc(N2C(=O)C3C(C2=O)C2(c4ccccc4)C(=O)C3(c3ccccc3)C(c3ccccc3)=C2c2ccccc2)cc1 (stereo not shown)	-0.1426
CN(C)c1ccc(C=Cc2nc(=O)c3ccccc3o2)cc1	-0.4965
COc1ccc(C2=C(c3ccc(OC)cc3)C3(c4ccccc4)C(=O)C2(c2ccccc2)C2C(=O)N(c4ccc(C)cc4)C(=O)C23)cc1 (stereo not shown)	0.03866
CCN(CC)CCNc1ncnc2c1[nH]c1ccc(Cl)cc12	-0.3667
CCC(c1ccccc1)c1nn2c(-c3cccs3)nnc2s1 (stereo not shown)	-2.138

* * *

// NAD+ lookup, one value per entry
system: P. falciparum 3D7 trophozoites; experiment: Metabolomic fingerprint profiling LC-MS; format: cell-based, Plasmodium falciparum; conditions: metabolite NAD+, S2 Table Metabolomics

molecule	NAD+
Oc1ccccc1CNCC12CC3CC(CC(C3)C1)C2	-0.1588
COc1cccc(NC(=O)[C@H](C(C)C)n2c(=O)[nH]c3ccccc3c2=O)c1	0.9896
COc1ccccc1N=C1C(=O)c2ccccc2C(O)=C1N1CCCCC1	-0.0924
O=C(O)C1Cc2c([nH]c3ccccc23)C(c2ccc(Cl)cc2Cl)N1 (stereo not shown)	0.09564
COc1ccc(Br)cc1C1Nc2ccc3ccccc3c2C2=C1C(=O)CC(c1ccccc1)C2 (stereo not shown)	-0.4069
CCCc1cc(O)c2c3c(c(=O)oc2c1)CN(C)CC3	0.1538
CCC(c1ccccc1)c1nn2c(-c3cccs3)nnc2s1 (stereo not shown)	-0.3556
CCc1c(C)c(=N)c2ccccc2n1C	-0.07608
CNCCCNc1ccnc2cc(Cl)ccc12	0.8214
CCN1CCN(Cc2ccc(NC(=O)c3cc4ccc5cccnc5c4[nH]3)cc2)CC1	-0.004207

* * *

test system: P. falciparum 3D7 trophozoites; experiment: Metabolomic fingerprint profiling LC-MS; assay type: cell-based, Plasmodium falciparum; conditions: metabolite xanthosine; S2 Table Metabolomics, change in metabolite level after compound treatment
// xanthosine lookup, one value per entry

compound	xanthosine
CCc1ccc(Nc2cc(C)c3ccc(O)cc3n2)cc1 [MMV000570]	-1.566
CCN1CCN(Cc2ccc(NC(=O)c3cc4ccc5cccnc5c4[nH]3)cc2)CC1 [MMV020548]	0.03293
CSc1ccccc1C(=O)Nc1nc(-c2ccccn2)cs1 [MMV001246]	-0.2265
Cc1ccc(-c2cc3c(SCC(=O)Nc4cc(C(F)(F)F)ccc4Cl)nccn3n2)cc1 [MMV396680]	-0.1274
CCOC(=O)c1ccc2nc(-c3ccccc3)cc(O)c2c1 [MMV006457]	-0.0194
O=C1C(O)=C([C@H]2CC[C@H](c3ccc(Cl)cc3)CC2)C(=O)c2ccccc21 [Atovaquone, reference compound]	0.05904
Oc1ccccc1CNCC12CC3CC(CC(C3)C1)C2 [MMV020788]	-0.4659
Cc1cc(C)cc(Nc2cc(C)nc3nc(C(F)(F)F)nn23)c1 [MMV011259]	-0.6868
O=C(NCC(c1ccsc1)N1CCCCCC1)c1ccc(C(F)(F)F)cc1 (stereo not drawn) [MMV396672]	-0.8196

* * *

system: U87-CD4-CCR5 or U87-CD4-CXCR4 cells; experiment: U87 cell viability MTT; format: cell-based; details: 5µM
// U87 Luc % cell death rep2 lookup, one value per entry

mol.smiles	U87 Luc % cell death rep2 [%]
COc1cc2cc(C(=O)Nc3ccccc3)c(N)nc2cc1OC	43
COc1ccc(C(=O)Nc2ccc3nc(N4CCCCC4)cc(C)c3c2)cc1OC	4.5
CCN1CCN(c2cc(C)c3cc(NC(=O)c4ccc(OC)c(OC)c4)ccc3n2)CC1	10
CCOC(=O)c1cnc2ccc(OC)cc2c1NCc1ccccc1	36
CCN(CC)c1cc(C)c2cc(NC(=O)c3cccc(OC)c3)ccc2n1	64

* * *

test system: P. falciparum 3D7 trophozoites; experiment: Metabolomic fingerprint profiling LC-MS; type: cell-based, Plasmodium falciparum; conditions: S2 Table Metabolomics; peptide PVNF
Class key for PVNF values: bottom end: < -0.8; midrange: ≥ -0.8 and < -0.07; top end: ≥ -0.07

compound	category.label
Cc1cc(C)cc(Nc2cc(C)nc3nc(C(F)(F)F)nn23)c1	midrange
CCC1(C)CC(CCNCc2ccccc2O)(c2ccc(C)cc2)CCO1 (stereo not drawn)	bottom end
O=C(NCC(c1ccsc1)N1CCCCCC1)c1ccc(C(F)(F)F)cc1 (stereo not drawn)	top end
CCCc1c(CC)c(=N)c2ccccc2n1C	top end
COc1ccc(C2=C(c3ccc(OC)cc3)C3(c4ccccc4)C(=O)C2(c2ccccc2)C2C(=O)N(c4ccc(C)cc4)C(=O)C23)cc1 (stereo not drawn)	top end
c1ccc2cc3c(Nc4ccc(N5CCOCC5)cc4)ccnc3cc2c1	midrange
CSC1=NC(=Nc2c(C)cccc2C)C2(CCC(C(C)(C)C)CC2)N1c1ccc(Cl)cc1 (stereo not drawn)	midrange
CSc1ccccc1C(=O)Nc1nc(-c2ccccn2)cs1	midrange
CCCCCC(=O)N1c2ccccc2N=C2CC(c3ccc(OC)c(OC)c3)CC(O)=C2C1c1ccc(C(F)(F)F)cc1 (stereo not drawn)	bottom end
CNCCCNc1ccnc2cc(Cl)ccc12	bottom end
Cc1ccc(-c2cc3c(SCC(=O)Nc4cc(C(F)(F)F)ccc4Cl)nccn3n2)cc1	midrange

* * *

system: P. falciparum 3D7 trophozoites; assay: Metabolomic fingerprint profiling LC-MS; assay type: cell-based, Plasmodium falciparum; details: metabolite sn-glycerol-3-phosphate, S2 Table Metabolomics

compound	sn-glycerol-3-phosphate
CCN1CCN(Cc2ccc(NC(=O)c3cc4ccc5cccnc5c4[nH]3)cc2)CC1	-0.07501
COc1ccc(NC(=O)C2c3ccccc3C(=O)N(CC(C)C)C2c2cccs2)cc1Cl (centres unmarked)	1.156
COc1cccc(C=Cc2nc(=O)c3ccccc3o2)c1OC	0.6187
Cc1ccc(N2C3c4ccccc4N(S(=O)(=O)c4ccc(C)cc4)C2c2ccccc2N3S(=O)(=O)c2ccc(C)cc2)cc1	-0.6224
O=C(O)C1Cc2c([nH]c3ccccc23)C(c2ccc(Cl)cc2Cl)N1 (centres unmarked)	-0.3078
Cc1cc(C)cc(Nc2cc(C)nc3nc(C(F)(F)F)nn23)c1	-0.2294
COc1ccccc1N=C1C(=O)c2ccccc2C(O)=C1N1CCCCC1	-0.8649
Cc1cc(C)c2c(c1)OCN(Cc1ccccc1Cl)C2	0.1135

* * *

tested on: P. falciparum 3D7 trophozoites; test: Metabolomic fingerprint profiling LC-MS; format: cell-based, Plasmodium falciparum; details: S2 Table Metabolomics; peptide PVNF
Criterion: PVNF meeting or surpassing 0.02. Met: Condition met. Not met: Condition not met.

compound	category.label
CCOc1ccc(-c2nonc2NC(=O)c2cccc(C)c2)cc1OCC	Condition not met
COc1ccc(-c2nc(NC(=O)CS(=O)(=O)c3ccc(F)cc3)sc2C)cc1	Condition met
COc1ccc(-n2ccnc2SCC(=O)Nc2cc(C)ccc2C)c(OC)c1	Condition not met
C[n+]1c2ccccc2nc2ccc(NCCO)cc21	Condition met
CCOC(=O)C1=C(c2ccccc2)N=c2sc(=Cc3cc(C)n(-c4ccc(F)cc4)c3C)c(=O)n2C1c1cccc(OC)c1OC (stereo not shown)	Condition not met
Cc1ccc(Nc2nc(-c3ccccn3)cs2)cc1	Condition met
COc1ccc(-c2c(C)nn3c(N)c(C#N)cnc23)cc1OC	Condition not met
O=C(CSc1nccn2nc(-c3ccccc3)cc12)Nc1cc(C(F)(F)F)ccc1Cl	Condition not met
c1ccc(Cn2c(N=Nc3c(Nc4ccccc4)ccc4ccccc34)nc3ccccc32)cc1	Condition not met
CCC(c1ccccc1)c1nn2c(-c3cccs3)nnc2s1 (stereo not shown)	Condition not met
Cc1ccc(-c2cc3c(nn2)-c2ccccc2C3=O)cc1	Condition met
COc1ccc(C=C2SC(=N)N(c3ccccc3OC)C2=O)cc1	Condition met
O=C1C(O)=C([C@H]2CC[C@H](c3ccc(Cl)cc3)CC2)C(=O)c2ccccc21 [Atovaquone, reference compound]	Condition not met
CCCc1cc(O)c2c3c(c(=O)oc2c1)CN(C)CC3	Condition not met
CCOC(=O)c1cn(CC)c2cc(N(C)CCc3ccc(OC)c(OC)c3)c(F)cc2c1=O	Condition not met
CC1CN(C(=O)c2sc3ccccc3c2Cl)CC(C)O1 (stereo not shown)	Condition met
O=C(O)C1Cc2c([nH]c3ccccc23)C(c2ccc(Cl)cc2Cl)N1 (stereo not shown)	Condition not met
CCOC(=O)c1c(NC(=O)c2ccccc2)sc2c(O)c(CN(CC)CC)ccc12	Condition not met
COc1ccccc1CNC(=O)CCn1c(=O)[nH]c2ccccc2c1=O	Condition not met

The origin of these recorded values is paper PMC4965013.
